Consider the following compounds and their measured relative viability readings.
# System: 201T
# assay.text: relative viability (nuclei count vs DMSO), 5 days (fraction); higher = more cells survive
# condition.notes: first compound 0.253 µM
Reply: number alone, nothing else.

>  <compound>
O=c1cc(-c2cccc3c2Sc2ccccc2S3)oc(N2CCOCC2)c1 + Cc1nc(NC(=O)N2CCC[C@H]2C(N)=O)sc1-c1ccnc(C(C)(C)C(F)(F)F)c1 [Alpelisib] (partner 2 µM)

>  <relative viability>
1.04

$$$$

Name the recorded relative viability for COc1nc(C)cnc1NS(=O)(=O)c1cccnc1-c1ccc(-c2nnco2)cc1 [Zibotentan] + N=C(N)NC(=N)NCCc1ccccc1 [Phenformin] (partner 250 µM) .
0.451

What about O=c1cc(-c2cccc3c2Sc2ccccc2S3)oc(N2CCOCC2)c1 + CC1(C)CCC(c2ccc(Cl)cc2)=C(CN2CCN(c3ccc(C(=O)NS(=O)(=O)c4ccc(N[C@H](CCN5CCOCC5)CSc5ccccc5)c(S(=O)(=O)C(F)(F)F)c4)cc3)CC2)C1 [Navitoclax] (partner 0.5 µM) ?
1.2
